Let's look at some binders and their measured IC50, huIL-6 secretion by BJ cells; rhuIL-17A (0.5 nM).
- systemUnderTest: T1, recombinant huIL-17A (SEQ ID NO: 76) (human, UniProt Q16552 24-155, limits assumed)
- T1 sequence: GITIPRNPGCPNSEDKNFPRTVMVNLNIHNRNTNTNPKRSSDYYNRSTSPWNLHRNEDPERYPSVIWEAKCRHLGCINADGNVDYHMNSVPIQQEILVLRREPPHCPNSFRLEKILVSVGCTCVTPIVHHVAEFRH
- procedureSummary: cell-based or functional assay
Number only, in nM; omit the unit.

binder	resultUnits	reportedValue
XAB4 (antibody, human IgG1, kappa, V domains shown) VH: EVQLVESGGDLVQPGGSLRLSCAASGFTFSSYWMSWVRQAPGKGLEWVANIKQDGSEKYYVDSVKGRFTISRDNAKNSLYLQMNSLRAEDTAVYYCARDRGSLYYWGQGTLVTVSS VL: AIQLTQSPSSLSASVGDRVTITCRPSQGINWELAWYQQKPGKAPKLLIYDASSLEQGVPSRFSGSGSGTDFTLTISSLQPEDFATYYCQQFNSYPLTFGGGTKVEIKR	nM	0.55

Requested read-out: IC50, huIL-6 secretion by BJ cells; rhuIL-17A (0.5 nM). Entry: XAB3 (antibody, human IgG1, kappa, V domains shown) VH: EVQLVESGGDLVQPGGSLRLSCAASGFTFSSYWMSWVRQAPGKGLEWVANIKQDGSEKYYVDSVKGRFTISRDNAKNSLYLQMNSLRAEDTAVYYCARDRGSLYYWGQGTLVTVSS VL: AIQLTQSPSSLSASVGDRVTITCRPSQGIYWELAWYQQKPGKAPKLLIYDASSLEQGVPSRFSGSGSGTDFTLTISSLQPEDFATYYCQQFNSYPLTFGGGTKVEIKR
0.5

Requested read-out: IC50, huIL-6 secretion by BJ cells; rhuIL-17A (0.5 nM). Entry: XAB2 (antibody, human IgG1, kappa, V domains shown, full IgG) VH: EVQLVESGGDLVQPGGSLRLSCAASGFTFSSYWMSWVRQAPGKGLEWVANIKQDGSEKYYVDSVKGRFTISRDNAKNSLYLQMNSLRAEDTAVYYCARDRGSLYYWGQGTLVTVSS VL: AIQLTQSPSSLSASVGDRVTITCRPSQVIISALAWYQQKPGKAPKLLIYDASSLEQGVPSRFSGSVSGTDFTLTISSLQPEDFATYYCQQFDSYPLTFGGGTKVEIKR
0.64

Requested read-out: IC50, huIL-6 secretion by BJ cells; rhuIL-17A (0.5 nM). Entry: XAB5 (antibody, human IgG1, kappa, V domains shown) VH: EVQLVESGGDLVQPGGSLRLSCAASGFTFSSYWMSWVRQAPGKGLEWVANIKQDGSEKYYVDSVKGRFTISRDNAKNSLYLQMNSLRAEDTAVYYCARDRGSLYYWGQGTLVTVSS VL: AIQLTQSPSSLSASVGDRVTITCRPSQGINWELAWYQQKPGKAPKLLIYDASSLENGVPSRFSGSGSGTDFTLTISSLQPEDFATYYCQQFNSYPLTFGGGTKVEIKR
0.54

Requested read-out: IC50, huIL-6 secretion by BJ cells; rhuIL-17A (0.5 nM). Entry: XAB1 (antibody, human IgG1, kappa, V domains shown) VH: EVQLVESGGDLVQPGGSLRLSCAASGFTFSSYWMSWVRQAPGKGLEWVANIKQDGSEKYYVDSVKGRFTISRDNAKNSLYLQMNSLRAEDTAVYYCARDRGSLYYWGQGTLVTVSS VL: AIQLTQSPSSLSASVGDRVTITCRPSQGIISALAWYQQKPGKAPKLLIYDASSLENGVPSRFSGSGSGTDFTLTISSLQPEDFATYYCQQFNSYPLTFGGGTKVEIKR
4.97
